biological target: mineralocorticoid receptor (MR) (Homo sapiens, UniProt P08235); test: Mineralocorticoid receptor agonist activity, PathHunter NHR nuclear translocation assay; details: PathHunter NHR CHO-K1 cells
Sequence (P08235 whole entry): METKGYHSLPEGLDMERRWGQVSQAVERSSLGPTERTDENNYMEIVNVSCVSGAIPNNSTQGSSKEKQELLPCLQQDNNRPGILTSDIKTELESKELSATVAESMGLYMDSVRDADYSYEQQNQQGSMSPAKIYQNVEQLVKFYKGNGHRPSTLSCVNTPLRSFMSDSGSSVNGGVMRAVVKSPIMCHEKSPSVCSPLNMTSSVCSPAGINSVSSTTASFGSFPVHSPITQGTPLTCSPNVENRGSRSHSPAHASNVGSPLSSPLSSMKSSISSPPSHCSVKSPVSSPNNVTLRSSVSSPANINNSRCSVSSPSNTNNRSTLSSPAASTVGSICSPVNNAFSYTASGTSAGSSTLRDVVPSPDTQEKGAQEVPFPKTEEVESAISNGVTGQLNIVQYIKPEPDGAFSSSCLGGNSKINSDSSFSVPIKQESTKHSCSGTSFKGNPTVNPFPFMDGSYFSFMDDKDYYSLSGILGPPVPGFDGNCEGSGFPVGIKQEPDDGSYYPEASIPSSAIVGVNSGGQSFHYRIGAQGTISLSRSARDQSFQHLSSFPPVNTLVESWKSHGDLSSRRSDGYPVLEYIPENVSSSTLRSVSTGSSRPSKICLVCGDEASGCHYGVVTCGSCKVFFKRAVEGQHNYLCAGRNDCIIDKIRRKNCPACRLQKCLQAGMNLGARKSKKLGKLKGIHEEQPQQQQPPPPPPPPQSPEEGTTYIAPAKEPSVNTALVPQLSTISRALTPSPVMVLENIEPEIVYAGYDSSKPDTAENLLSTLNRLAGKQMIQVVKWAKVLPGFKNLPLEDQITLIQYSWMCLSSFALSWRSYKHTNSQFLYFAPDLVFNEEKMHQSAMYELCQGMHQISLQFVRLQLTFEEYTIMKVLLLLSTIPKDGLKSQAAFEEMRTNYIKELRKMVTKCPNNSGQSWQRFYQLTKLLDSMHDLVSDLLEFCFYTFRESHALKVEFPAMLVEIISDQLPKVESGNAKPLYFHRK
Documented EC50 across a set of molecules
Your answer is read as µM, so omit the unit and give the number.

Use the examples below as a reference point.
C[C@]12C=CC(=O)C=C1CC[C@@H]1[C@@H]2[C@@H](O)C[C@@]2(C)[C@H]1C[C@H]1O[C@@H](c3ccc(C(=O)c4cccc(N)c4)cc3)O[C@]12C(=O)CO [Compound 2-A]	0.22
C[C@]12C=CC(=O)C=C1CC[C@@H]1[C@@H]2[C@@H](O)C[C@@]2(C)[C@H]1C[C@H]1O[C@@H](c3ccc(Cc4cccc5c(N)cccc45)cc3)O[C@]12C(=O)CO [Compound 3-A]	0.19

# next molecule below
Please provide the recorded EC50 for C[C@]12C=CC(=O)C=C1CC[C@@H]1[C@@H]2[C@@H](O)C[C@@]2(C)[C@H]1C[C@H]1O[C@@H](c3ccc(C(F)(F)c4cccc(N)c4)cc3)O[C@]12C(=O)CO [Compound 4-A] , tested on mineralocorticoid receptor (MR) (Homo sapiens, UniProt P08235). 0.26
